# tgt: Casein kinase I isoform epsilon (Homo sapiens)
# Sequence (P49674 whole entry, canonical isoform): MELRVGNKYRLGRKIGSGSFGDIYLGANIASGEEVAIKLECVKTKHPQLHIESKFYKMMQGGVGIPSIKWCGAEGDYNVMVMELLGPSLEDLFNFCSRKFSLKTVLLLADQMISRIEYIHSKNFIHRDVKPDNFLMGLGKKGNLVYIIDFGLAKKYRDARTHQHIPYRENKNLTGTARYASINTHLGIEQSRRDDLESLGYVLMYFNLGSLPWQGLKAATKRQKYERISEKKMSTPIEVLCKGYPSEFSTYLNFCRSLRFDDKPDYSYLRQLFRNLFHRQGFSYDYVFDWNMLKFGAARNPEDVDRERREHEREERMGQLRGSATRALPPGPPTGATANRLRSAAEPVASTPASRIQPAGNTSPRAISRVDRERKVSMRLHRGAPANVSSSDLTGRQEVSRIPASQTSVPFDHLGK
The source made the active and inactive calls.
# output must be one of y for active, n for inactive

Record request — test call for O=C(Cc1ccc(-c2ccc(OCCN3CCOCC3)cc2)cn1)NCc1ccccc1
n

Record request — test call for COCC(=O)NC/C=C/c1ccc2ncnc(Nc3ccc(Oc4ccc(C)nc4)c(C)c3)c2c1
n

Record request — test call for Cc1nc(Nc2n[nH]c3c2CN(C(=O)N[C@H](CN(C)C)c2ccccc2)C3(C)C)c2sccc2n1
n

Record request — test call for COCc1c(-c2ccc(NC(=O)Nc3cc(C(F)(F)F)ccc3F)c(F)c2)c2c(N)ncnn2c1CN1CCOCC1
n

Record request — test call for Cc1cc(Nc2ncc(Cl)c(Nc3ccccc3S(=O)(=O)C(C)C)n2)c(OC(C)C)cc1C1CCNCC1
n

Record request — test call for Cn1cc(-c2cnc3ccc4ccc(CS(=O)(=O)NCc5ccccn5)cc4c(=O)c3c2)cn1
n

Record request — test call for CCCCCCCCCCCCCCCCCCOP(=O)([O-])OC1CC[N+](C)(C)CC1
n

Record request — test call for Cn1cnc2c(F)c(Nc3ccc(Br)cc3F)c(C(=O)NOCCO)cc21
n

Record request — test call for C=CC(=O)Nc1cc2c(Nc3ccc(F)c(Cl)c3)ncnc2cc1C#CC(C)(C)N1CCN(C)CC1 [AV-412 FREE BASE]
n

Record request — test call for Cc1nc2cc(-c3nn(C(C)C)c4ncnc(N)c34)ccc2o1
y

Record request — test call for COc1c(OCCCN2CCOCC2)ccc2c1N=C(NC(=O)c1cnc(N)nc1)N1CCN=C21
n

Record request — test call for Cc1cccc(-c2nn3c(c2-c2ccnc4ccc(C(N)=O)cc24)CCC3)n1
y

Record request — test call for C[C@@H](NC(=O)c1ncnc(N)c1Cl)c1ncc(C(=O)Nc2cc(C(F)(F)F)c(Cl)cn2)s1
n

* * *

# tgt: Ephrin type-A receptor 4 (Homo sapiens, UniProt P54764)
# Sequence (P54764 whole entry): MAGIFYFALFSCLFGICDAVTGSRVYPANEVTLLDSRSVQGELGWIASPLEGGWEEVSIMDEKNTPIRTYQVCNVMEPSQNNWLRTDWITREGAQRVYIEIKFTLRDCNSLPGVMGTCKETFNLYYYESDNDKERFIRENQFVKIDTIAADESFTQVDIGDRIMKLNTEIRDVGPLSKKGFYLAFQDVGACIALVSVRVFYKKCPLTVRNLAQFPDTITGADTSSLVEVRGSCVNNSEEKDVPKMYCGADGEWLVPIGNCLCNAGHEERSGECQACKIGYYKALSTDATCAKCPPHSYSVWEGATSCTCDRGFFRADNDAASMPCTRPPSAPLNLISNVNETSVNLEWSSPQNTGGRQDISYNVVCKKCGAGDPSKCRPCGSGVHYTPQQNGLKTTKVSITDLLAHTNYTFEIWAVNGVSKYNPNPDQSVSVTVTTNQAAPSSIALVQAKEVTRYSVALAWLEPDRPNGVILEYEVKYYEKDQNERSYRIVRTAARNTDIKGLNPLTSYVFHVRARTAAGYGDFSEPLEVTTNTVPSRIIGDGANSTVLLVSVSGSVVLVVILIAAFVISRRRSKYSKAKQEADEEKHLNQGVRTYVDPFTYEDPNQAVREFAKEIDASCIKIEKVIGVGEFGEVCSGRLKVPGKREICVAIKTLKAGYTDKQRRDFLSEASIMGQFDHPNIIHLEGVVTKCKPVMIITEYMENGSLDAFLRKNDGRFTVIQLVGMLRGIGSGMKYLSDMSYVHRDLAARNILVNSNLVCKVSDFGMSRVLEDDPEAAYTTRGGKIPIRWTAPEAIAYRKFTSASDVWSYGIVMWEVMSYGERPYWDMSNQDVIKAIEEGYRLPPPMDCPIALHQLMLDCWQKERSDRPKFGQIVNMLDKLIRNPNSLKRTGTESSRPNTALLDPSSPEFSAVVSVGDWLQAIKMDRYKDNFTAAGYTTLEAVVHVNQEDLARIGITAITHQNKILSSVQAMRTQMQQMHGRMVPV
Where a name gives a salt, the structure may show the parent alone. Active and inactive are the calls of the source.
# output must be one of active, inactive

Record request — test call for Cn1cc(-c2cnc3ccc4ccc(CS(=O)(=O)NCc5ccccn5)cc4c(=O)c3c2)cn1
inactive

Record request — test call for CCS(=O)(=O)N1CCN(c2ccc(Nc3ncc(C(N)=O)c(NC4CC4)n3)cc2)CC1 [Cerdulatinib Hydrochloride]
inactive

Record request — test call for CCS(=O)(=O)c1cccc(-c2cc(C(=O)NC3CCN(C)CC3)c(C)c3[nH]c4ncc(C)cc4c23)c1
active

Record request — test call for Cc1cc(Nc2ncc(Cl)c(Nc3ccccc3S(=O)(=O)C(C)C)n2)c(OC(C)C)cc1C1CCNCC1
inactive

Record request — test call for Cc1nc2cc(-c3nn(C(C)C)c4ncnc(N)c34)ccc2o1
inactive

Record request — test call for O=c1[nH]ccc2cc(OC3CCNCC3)ccc12 [SAR-407899 FREE BASE]
inactive

Record request — test call for CC(C)c1cc(CNc2nc(Nc3cc(C4CC4)[nH]n3)cc(N3CCN(C)CC3)n2)on1
active

Record request — test call for C=CC(=O)N1CCC[C@H](n2c(=O)n(-c3ccc(Oc4ccccc4)cc3)c3c(N)ncnc32)C1
inactive

* * *

# tgt: Glycogen phosphorylase, brain form (Homo sapiens, UniProt P11216)
# Sequence (P11216 whole entry): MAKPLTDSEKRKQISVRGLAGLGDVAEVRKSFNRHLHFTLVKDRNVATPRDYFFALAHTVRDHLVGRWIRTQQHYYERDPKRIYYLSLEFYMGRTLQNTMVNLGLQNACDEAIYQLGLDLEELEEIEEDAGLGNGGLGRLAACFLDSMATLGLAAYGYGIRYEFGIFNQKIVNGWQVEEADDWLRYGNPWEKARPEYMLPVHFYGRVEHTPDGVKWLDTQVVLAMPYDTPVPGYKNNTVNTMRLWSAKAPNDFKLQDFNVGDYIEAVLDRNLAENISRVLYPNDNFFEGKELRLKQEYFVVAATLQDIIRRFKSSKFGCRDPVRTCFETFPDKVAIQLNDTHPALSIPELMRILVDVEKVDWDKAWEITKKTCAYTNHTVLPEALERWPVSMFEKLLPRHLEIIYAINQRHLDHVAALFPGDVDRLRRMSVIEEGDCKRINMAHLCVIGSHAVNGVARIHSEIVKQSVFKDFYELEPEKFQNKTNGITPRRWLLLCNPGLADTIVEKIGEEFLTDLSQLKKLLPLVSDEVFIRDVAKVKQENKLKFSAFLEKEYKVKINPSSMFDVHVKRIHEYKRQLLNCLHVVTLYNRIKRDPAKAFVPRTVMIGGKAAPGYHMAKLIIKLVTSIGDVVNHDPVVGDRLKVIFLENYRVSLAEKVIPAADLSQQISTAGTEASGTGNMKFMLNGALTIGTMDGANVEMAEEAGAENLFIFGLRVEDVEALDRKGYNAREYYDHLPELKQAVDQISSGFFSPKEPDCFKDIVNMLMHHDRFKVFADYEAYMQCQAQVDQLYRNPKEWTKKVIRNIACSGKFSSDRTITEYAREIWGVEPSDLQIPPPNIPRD
Active and inactive are the calls of the source.
Task for the reader: assign each of the following compounds its reported Kd.

Field request: Kd | item: C=CC(=O)N1CCC[C@H](n2c(=O)n(-c3ccc(Oc4ccccc4)cc3)c3c(N)ncnc32)C1
> 30 µM (inactive)

Field request: Kd | item: CNC(=O)c1cccc2cc(Oc3ccnc4cc(OCC5(N)CC5)c(OC)cc34)ccc12
> 30 µM (inactive)

Field request: Kd | item: O=C(Nc1cc(C(F)(F)F)cc(C(F)(F)F)c1)c1cc(Cl)ccc1O
> 30 µM (inactive)

* * *

# tgt: Inhibitor of nuclear factor kappa-B kinase subunit epsilon (Homo sapiens, UniProt Q14164)
# Sequence (Q14164 whole entry): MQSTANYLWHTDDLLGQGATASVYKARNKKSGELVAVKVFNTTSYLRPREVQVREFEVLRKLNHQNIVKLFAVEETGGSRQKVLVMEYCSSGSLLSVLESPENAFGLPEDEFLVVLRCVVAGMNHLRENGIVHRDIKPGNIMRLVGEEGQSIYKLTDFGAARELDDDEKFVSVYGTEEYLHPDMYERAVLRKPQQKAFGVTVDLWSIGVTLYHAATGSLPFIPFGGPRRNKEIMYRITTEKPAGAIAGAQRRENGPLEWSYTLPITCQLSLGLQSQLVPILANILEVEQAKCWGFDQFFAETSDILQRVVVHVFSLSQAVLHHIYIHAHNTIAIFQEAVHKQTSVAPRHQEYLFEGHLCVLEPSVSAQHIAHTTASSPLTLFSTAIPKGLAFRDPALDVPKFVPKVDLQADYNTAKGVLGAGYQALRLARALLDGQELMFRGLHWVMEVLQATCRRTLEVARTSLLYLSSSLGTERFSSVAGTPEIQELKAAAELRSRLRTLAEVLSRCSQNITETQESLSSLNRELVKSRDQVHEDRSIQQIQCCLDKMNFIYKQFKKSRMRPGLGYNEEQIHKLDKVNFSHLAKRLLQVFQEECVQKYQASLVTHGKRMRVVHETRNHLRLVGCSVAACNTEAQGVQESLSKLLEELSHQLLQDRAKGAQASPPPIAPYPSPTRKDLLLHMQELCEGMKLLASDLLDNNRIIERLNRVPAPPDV
Where a name gives a salt, the structure may show the parent alone. Active and inactive are the calls of the source.
# output must be one of active, inactive

Record request — test call for N#CC1(c2ccc(NC(=O)c3cccnc3NCc3ccncc3)cc2)CCCC1
inactive

Record request — test call for CCS(=O)(=O)N1CCN(c2ccc(Nc3ncc(C(N)=O)c(NC4CC4)n3)cc2)CC1 [Cerdulatinib Hydrochloride]
active

Record request — test call for CCn1c(C(=O)N(C2CC2)C2CC2)cc2c3c(ncn3C)c(Nc3cc(C)n(C)n3)nc21
inactive

Record request — test call for COCC(=O)NC/C=C/c1ccc2ncnc(Nc3ccc(Oc4ccc(C)nc4)c(C)c3)c2c1
inactive

* * *

# tgt: RAC-gamma serine/threonine-protein kinase (Homo sapiens)
# Sequence (Q9Y243 whole entry): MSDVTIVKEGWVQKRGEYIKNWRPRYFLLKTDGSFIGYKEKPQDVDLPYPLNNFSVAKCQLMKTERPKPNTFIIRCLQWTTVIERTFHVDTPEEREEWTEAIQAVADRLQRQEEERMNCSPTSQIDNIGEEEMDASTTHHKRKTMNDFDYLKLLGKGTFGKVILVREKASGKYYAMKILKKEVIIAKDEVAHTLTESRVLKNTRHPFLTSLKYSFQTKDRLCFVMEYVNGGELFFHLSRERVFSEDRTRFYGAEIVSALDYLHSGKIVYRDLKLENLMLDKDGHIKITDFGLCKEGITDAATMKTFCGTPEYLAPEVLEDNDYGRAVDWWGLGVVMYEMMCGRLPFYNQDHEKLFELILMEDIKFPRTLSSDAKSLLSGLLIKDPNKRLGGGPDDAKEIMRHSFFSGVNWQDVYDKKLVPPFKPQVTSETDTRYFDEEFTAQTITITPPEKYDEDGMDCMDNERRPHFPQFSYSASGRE
Activity calls are given as the source filed them.
# output must be one of y for active, n for inactive

Record request — test call for CN1CCN(CCOc2cc(OC3CCOCC3)c3c(Nc4c(Cl)ccc5c4OCO5)ncnc3c2)CC1 [SARACATINIB]
n

Record request — test call for Cc1csc(-c2nnc(Nc3ccc(Oc4ncccc4-c4ccnc(N)n4)cc3)c3ccccc23)c1 [AMG-900]
n

Record request — test call for O=c1[nH]ccc2cc(OC3CCNCC3)ccc12 [SAR-407899 FREE BASE]
n

Record request — test call for N#CC1(c2ccc(NC(=O)c3cccnc3NCc3ccncc3)cc2)CCCC1 [RIVOCERANIB]
n

Record request — test call for Cc1cccc(-c2nn3c(c2-c2ccnc4ccc(C(N)=O)cc24)CCC3)n1 [GALUNISERTIB]
n

Record request — test call for FC(F)(F)c1ccc(/C=C/c2nc(COc3ccc(CCCCn4ccnn4)cc3)co2)cc1 [MUBRITINIB]
n

Record request — test call for CNC(=O)c1cccc2cc(Oc3ccnc4cc(OCC5(N)CC5)c(OC)cc34)ccc12 [LUCITANIB]
n

Record request — test call for Cc1nc(NC(=O)N2CCC[C@H]2C(N)=O)sc1-c1ccnc(C(C)(C)C(F)(F)F)c1 [ALPELISIB]
n

Record request — test call for CCOc1cc2ncc(C#N)c(Nc3ccc(F)c(Cl)c3)c2cc1NC(=O)/C=C/CN(C)C [PELITINIB]
n

Record request — test call for CC(=O)c1cnc2ccc(-c3cc(Cl)c(O)c(Cl)c3)nc2c1N[C@H]1CC[C@H](CN(C)C)CC1
n

Record request — test call for Cn1cnc2c(F)c(Nc3ccc(Br)cc3F)c(C(=O)NOCCO)cc21 [BINIMETINIB]
n

Record request — test call for CNC(=O)c1nn(C)c2c1C(C)(C)Cc1cnc(Nc3ccc(N4CCN(C)CC4)cc3)nc1-2 [MILCICLIB]
n

Record request — test call for COc1cc([C@@H]2c3cc4c(cc3[C@H](O)[C@H]3COC(=O)[C@@H]23)OCO4)cc(OC)c1OC [AXL-1717]
n

Record request — test call for COc1ccc(S(=O)(=O)N(C(C)=O)c2ccccc2/C=C/c2cc[n+]([O-])cc2)cc1 [HMN-214]
n

Record request — test call for Cn1cc(-c2cnc3ccc4ccc(CS(=O)(=O)NCc5ccccn5)cc4c(=O)c3c2)cn1 [MK-8033]
n

Record request — test call for CCS(=O)(=O)c1cccc(-c2cc(C(=O)NC3CCN(C)CC3)c(C)c3[nH]c4ncc(C)cc4c23)c1 [TAK-901]
n

Record request — test call for COc1cc2ncnc(Oc3cccc(NC(=O)Nc4cc(C(C)(C)C(F)(F)F)on4)c3)c2cc1OC [CEP-32496]
n

Record request — test call for COc1c(OCCCN2CCOCC2)ccc2c1N=C(NC(=O)c1cnc(N)nc1)N1CCN=C21 [COPANLISIB]
n

Record request — test call for COCC(=O)NC/C=C/c1ccc2ncnc(Nc3ccc(Oc4ccc(C)nc4)c(C)c3)c2c1 [CP-724714]
n

Record request — test call for CO[C@H]1C[C@@H]2CC[C@@H](C)[C@@](O)(O2)C(=O)C(=O)N2CCCC[C@H]2C(=O)O[C@H]([C@H](C)C[C@@H]2CC[C@@H](OP(C)(C)=O)[C@H](OC)C2)CC(=O)[C@H](C)/C=C(\C)[C@@H](O)[C@@H](OC)C(=O)[C@H](C)C[C@H](C)/C=C/C=C/C=C/1C [RIDAFOROLIMUS]
n

Record request — test call for O=C1NC(=O)[C@@H](c2cn3c4c(cccc24)CCC3)[C@@H]1c1c[nH]c2ccccc12 [TIVANTINIB]
n

Record request — test call for CO[C@H]1C[C@@H]2CC[C@@H](C)[C@@](O)(O2)C(=O)C(=O)N2CCCC[C@H]2C(=O)O[C@H]([C@H](C)C[C@@H]2CC[C@@H](OC(=O)C(C)(CO)CO)[C@H](OC)C2)CC(=O)[C@H](C)/C=C(\C)[C@@H](O)[C@@H](OC)C(=O)[C@H](C)C[C@H](C)/C=C/C=C/C=C/1C [TEMSIROLIMUS]
n

Record request — test call for O=C(Cc1ccc(-c2ccc(OCCN3CCOCC3)cc2)cn1)NCc1ccccc1 [TIRBANIBULIN]
n

Record request — test call for CCCCCCCCCCCCCCCCCCOP(=O)([O-])OC1CC[N+](C)(C)CC1 [PERIFOSINE]
n

Record request — test call for Cc1nc2cc(-n3ncc(C(=O)c4cc5ccccc5[nH]4)c3N)ccc2[nH]1 [FGFR INHIBITOR DEBIO 1347]
n

Record request — test call for CNC(=O)c1cc(Oc2ccc(NC(=O)Nc3cc(C(C)(C)C)nn3-c3ccc4ncccc4c3)c(F)c2)ccn1 [REBASTINIB]
n

Record request — test call for CC(C)c1cc(CNc2nc(Nc3cc(C4CC4)[nH]n3)cc(N3CCN(C)CC3)n2)on1 [XL-228]
n

Record request — test call for CCn1cc(-c2ccnc3[nH]c(-c4cccc(CN(C)C)c4)cc23)c(-c2ccc(NC(=O)N(C)C)cc2)n1 [GSK-1070916]
y

Record request — test call for CCn1c(C(=O)N(C2CC2)C2CC2)cc2c3c(ncn3C)c(Nc3cc(C)n(C)n3)nc21 [BMS-911543]
n

Reference for the values: ChEMBL document CHEMBL3991601
